Examples of compounds with documented pKi follow.
- Tested On: Sigma non-opioid intracellular receptor 1 (Cavia porcellus)
- Sequence (Q60492 whole entry): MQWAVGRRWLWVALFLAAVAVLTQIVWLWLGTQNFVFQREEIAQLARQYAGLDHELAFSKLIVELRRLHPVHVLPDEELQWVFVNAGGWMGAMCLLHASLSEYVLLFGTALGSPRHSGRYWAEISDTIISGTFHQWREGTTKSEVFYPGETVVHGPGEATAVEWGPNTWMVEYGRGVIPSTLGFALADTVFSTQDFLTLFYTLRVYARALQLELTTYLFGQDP
- Method Summary: Displacement of [3H](+)-pentazocine from sigma-1 receptor in guinea pig brain cortex after 120 mins by scintillation counting analysis
Please report pKi as the negative decimal logarithm of the molar concentration, giving only the number.

- Compound: "C[C@H](CCN1CCCCC1)c1ccc(-c2ccccc2)cc1"
  Measured Result: 8.74
- Compound: "C[C@@](O)(CCN1CCCCC1)c1ccc(-c2ccccc2)cc1"
  Measured Result: 7.41
- Compound: "COc1ccc2cc([C@]3(O)CCN(C)[C@H]3C)ccc2c1"
  Measured Result: 5.92
- Compound: "CC(O)(CCN1CCCCC1)c1ccc(-c2ccccc2)cc1 (racemic)"
  Measured Result: 8.18
- Compound: "CN(C)CCC(C)(O)c1ccc2ccccc2c1 (racemic)"
  Measured Result: 7.11

Consider CN(C)CC[C@](C)(O)c1ccc2ccccc2c1 . Its measured pKi is 7.20

* * *

- Method Summary: Displacement of [3H]-DTG from sigma-2 receptor in Sprague-Dawley rat liver membranes after 120 mins by scintillation counting analysis
- Type: cell membranes, Membrane
Outcome Measure: Ki (µM)
Give just the numeric value; µM need not be written.

Worked examples follow.
- Compound: "COc1ccc2cc(C(C)(O)CCN(C)C)ccc2c1 (racemic)"
  Units Text: "µM"
  Ki: 0.097
- Compound: "CC(CCN1CCCCC1)c1ccc(-c2ccccc2)cc1 (racemic)"
  Units Text: "µM"
  Ki: 0.103

// below: Ki requested for another compound
Consider C[C@@H](CCN1CCCCC1)c1ccc(-c2ccccc2)cc1 . Its measured Ki is 0.098
